molecular target: Neuronal acetylcholine receptor; alpha4/beta2 (Rattus norvegicus, UniProt P09483+P12390); assay: Displacement of (+/-)-[3H]epibatidine from alpha4beta2 nAChR in rat cortical membrane
Sequence (P09483 whole entry): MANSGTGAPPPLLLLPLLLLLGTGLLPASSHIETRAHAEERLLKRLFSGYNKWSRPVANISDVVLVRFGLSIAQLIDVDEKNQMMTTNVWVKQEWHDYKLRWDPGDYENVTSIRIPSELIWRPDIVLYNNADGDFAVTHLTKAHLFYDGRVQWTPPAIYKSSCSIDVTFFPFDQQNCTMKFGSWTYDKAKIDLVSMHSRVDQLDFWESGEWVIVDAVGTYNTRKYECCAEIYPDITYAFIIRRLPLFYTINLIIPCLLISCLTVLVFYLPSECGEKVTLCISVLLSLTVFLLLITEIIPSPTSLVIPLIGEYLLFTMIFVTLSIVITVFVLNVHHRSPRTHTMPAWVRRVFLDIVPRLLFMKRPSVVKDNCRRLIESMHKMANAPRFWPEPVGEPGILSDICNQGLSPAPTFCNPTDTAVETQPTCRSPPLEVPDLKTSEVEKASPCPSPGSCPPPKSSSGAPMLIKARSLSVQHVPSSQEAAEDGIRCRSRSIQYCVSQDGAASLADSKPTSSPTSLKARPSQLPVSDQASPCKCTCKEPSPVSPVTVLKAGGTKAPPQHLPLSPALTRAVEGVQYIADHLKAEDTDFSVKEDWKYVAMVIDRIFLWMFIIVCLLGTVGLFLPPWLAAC
Sequence (P12390 whole entry): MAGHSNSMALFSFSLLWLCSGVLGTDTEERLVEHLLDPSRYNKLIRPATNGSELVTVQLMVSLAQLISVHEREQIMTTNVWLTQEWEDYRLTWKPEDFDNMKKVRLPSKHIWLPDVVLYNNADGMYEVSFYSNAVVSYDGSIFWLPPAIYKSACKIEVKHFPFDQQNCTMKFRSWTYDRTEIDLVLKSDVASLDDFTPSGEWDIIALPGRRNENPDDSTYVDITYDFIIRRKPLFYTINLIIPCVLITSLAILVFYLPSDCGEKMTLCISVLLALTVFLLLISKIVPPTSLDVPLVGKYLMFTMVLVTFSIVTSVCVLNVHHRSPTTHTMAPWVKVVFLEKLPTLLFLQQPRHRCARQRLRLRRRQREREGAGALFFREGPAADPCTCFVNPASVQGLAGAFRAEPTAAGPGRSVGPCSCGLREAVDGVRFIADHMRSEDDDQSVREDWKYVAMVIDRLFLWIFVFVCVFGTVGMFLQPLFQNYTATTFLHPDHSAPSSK
Flag rule - Ki less than 30 µM flags criterion met; the remaining entries get criterion not met.

Example results:
# molecule, classLabel
measured = [
    ("BrC1=NOC2C3CCC(CC12)N3 (configuration not stated)", "criterion met"),
    ("COC1=NOC2CC3CNCC(C3)C12 (configuration not stated)", "criterion not met"),
    ("BrC1=NOC2CC3CCC(N3)C12 (configuration not stated)", "criterion not met"),
    ("CN1OC2CC3CCC(N3)C2C1=O (configuration not stated)", "criterion not met"),
    ("CN1OC2CC3CNCC(C3)C2C1=O (configuration not stated)", "criterion not met"),
]

Turning now to a further molecule:
Incoming: I wonder whether COC1=NOC2C3CCC(CC12)N3 (configuration not stated) has Ki below 30 µM. Can you tell?
Outgoing: criterion met
